system: 621-102 (TSC2-deficient); assay: relative viability vs DMSO (fraction); higher = less cytotoxic; details: 0.0128 nM; serum: 0.1% FBS; 72 h
Counter-ions that a name gives are not always drawn.
experimental_readout: relative viability
Keep it simple and answer with nothing but the number.

Nc1cccc2c1C(=O)N(C1CCC(=O)NC1=O)C2=O (stereo not drawn) [Pomalidomide] | 1.18
CC1=NN(c2ccc(C)c(C)c2)C(=O)/C1=N\Nc1cccc(-c2cccc(C(=O)O)c2)c1O [Eltrombopag] | 1.19
COC1=CC(c2cc3ccccc3[nH]2)=N/C1=C\c1[nH]c(C)cc1C [Obatoclax Mesylate] | 1.24

Inquiry: Field request: relative viability | item: Cc1ccc(C(=O)Nc2cccc(C(F)(F)F)c2)cc1Nc1nc(-c2cccnc2)nc2c1cnn2C [NVP-BHG712]
Reply text: 1.3

Inquiry: Repeat with CCN1CCN(Cc2ccc(-c3cc4c(N[C@H](C)c5ccccc5)ncnc4[nH]3)cc2)CC1 [AEE788]
Reply text: 1.06

Inquiry: Repeat with Nc1nc2[nH]cc(CCc3ccc(C(=O)N[C@@H](CCC(=O)O)C(=O)O)cc3)c2c(=O)[nH]1 [Pemetrexed disodium]
Reply text: 1.25

Inquiry: Repeat with Nc1ccccc1NC(=O)c1ccc(CNc2nccc(-c3cccnc3)n2)cc1 [Mocetinostat]
Reply text: 0.964

Inquiry: Repeat with COc1cccc2c1C(=O)c1c(O)c3c(c(O)c1C2=O)C[C@@](O)(C(=O)CO)C[C@@H]3O[C@H]1C[C@H](N)[C@H](O)[C@H](C)O1 [Doxorubicin (adriamycin)]
Reply text: 0.343

Inquiry: Repeat with O=c1cc(N2CCOCC2)oc2c(-c3cccc4c3sc3ccccc34)cccc12 [NU7441]
Reply text: 1.29

Inquiry: Repeat with CNC(=O)c1cc(Oc2ccc(NC(=O)Nc3cc(C(C)(C)C)nn3-c3ccc4ncccc4c3)c(F)c2)ccn1 [DCC-2036]
Reply text: 1.65

Inquiry: Repeat with Cn1cc(CNCC2CCN(c3ncc(C(=O)NO)cn3)CC2)c2ccccc21
Reply text: 1.02

Inquiry: Repeat with COc1ccc(S(=O)(=O)N(C(C)=O)c2ccccc2/C=C/c2cc[n+]([O-])cc2)cc1 [HMN-214]
Reply text: 1.16

Inquiry: Repeat with O=C(Cc1ccc(-c2ccc(OCCN3CCOCC3)cc2)cn1)NCc1ccccc1 [KX2-391]
Reply text: 1.18

----------
tested on: 621-102 (TSC2-deficient); test: relative viability vs DMSO; higher = less cytotoxic; conditions: 0.01 µM; serum: 10% FBS; 72 h
experimental_readout: relative viability (%)
// note: answer is a bare numeric in %

# example entries with known answers
Cn1cc(/C=C/C(=O)c2cccc(F)c2)cc1/C=C/C(=O)NO | 103
CN1C(C(=O)Nc2ccccn2)=C(O)c2ccccc2S1(=O)=O | 111
O=c1cc(N2CCOCC2)oc2c(-c3cccc4c3sc3ccccc34)cccc12 | 78.8
CCOc1cc2ncc(C#N)c(Nc3ccc(F)c(Cl)c3)c2cc1NC(=O)/C=C/CN(C)C | 122
COc1ccc(-n2nc(C(N)=O)c3c2C(=O)N(c2ccc(N4CCCCC4=O)cc2)CC3)cc1 | 112
CC(=O)NC[C@H]1CN(c2ccc(N3CCOCC3)c(F)c2)C(=O)O1 | 103
Cc1ccc(S(=O)(=O)OCC(=O)Nc2ccc(C(=O)O)c(O)c2)cc1 | 123
COc1cc(Nc2ncc(F)c(Nc3ccc4c(n3)N(COP(=O)(O)O)C(=O)C(C)(C)O4)n2)cc(OC)c1OC | 107

Inquiry: Field request: relative viability | item: Cc1csc(-c2nnc(Nc3ccc(Oc4ncccc4-c4ccnc(N)n4)cc3)c3ccccc23)c1
Reply text: 75.4

Inquiry: Repeat with COc1ccc(-c2oc3c(CC=C(C)C)c(O[C@@H]4O[C@H](CO)[C@@H](O)[C@H](O)[C@H]4O)cc(O)c3c(=O)c2O[C@@H]2O[C@@H](C)[C@H](O)[C@@H](O)[C@H]2O)cc1
Reply text: 89.4

Inquiry: Repeat with Cc1ccc(NC(=O)c2ccc(CN3CCN(C)CC3)cc2)cc1Nc1nccc(-c2cccnc2)n1 [Imatinib (STI571)]
Reply text: 99

Inquiry: Repeat with O=C(/C=C/c1cccc(S(=O)(=O)Nc2ccccc2)c1)NO
Reply text: 107

Inquiry: Repeat with CC1=C(C(=O)Nc2cc3cn[nH]c3cc2F)C(c2ccc(C(F)(F)F)cc2)CC(=O)N1 (centres undefined)
Reply text: 105
